Test system: MDA-MB-231 breast
Experiment: NCI tumour cell line growth inhibition, 48 h
Reported TGI values are given for each entry in this list.
Entry rule: numbers only, all in µM.

Look over these answered cases.
[[record]]
smiles_entry = "COc1cc(C(=O)NC2c3ccccc3-c3ccccc32)c(N)cc1OCc1ccccc1"
system_name = "MDA-MB-231 breast"
quantitative_result = 47.1

[[record]]
smiles_entry = "Cc1ccc(-c2cc(N)n(-c3nc4c([nH]3)c(=O)n(C)c(=O)n4C)n2)cc1"
system_name = "MDA-MB-231 breast"
quantitative_result = 27.8

[[record]]
smiles_entry = "Clc1cc(N/N=C(/c2ccccc2)c2ncccn2)ncn1"
system_name = "MDA-MB-231 breast"
quantitative_result = 82.1


Now for another entry.
# TGI of `Nc1n[nH]c2ccc([C@@H]3Nc4ccc5[nH]ncc5c4[C@H]4[C@H]5CCC(C5)[C@H]43)cc12` = 18.5

====

Test system: KM12 colon
Test: NCI tumour cell line growth inhibition, 48 h
assay endpoint: TGI (µM)
Please state the figure in µM; there is no need to write the unit.

[[record]]
compound = "O=C(Nc1cccc(-n2ccc3c(NC(=O)c4ccccc4)nccc32)c1)c1cccc(C(F)(F)F)c1"
quantitative_result = 1.4

[[record]]
compound = "N#CC1=C(N)OC2=C(CSc3ccccc32)C1c1ccc(Br)cc1 (stereo not given)"
quantitative_result = 44.6


Sure, the documented TGI for CCOc1ccc(NC(=O)CC2Sc3ccccc3NC2=O)cc1 (stereo not given) is 95.2

In plain terms, CC(=O)NC1C(OCc2ccccc2)OC(CO)C(O)C1OCC(=O)N[C@@H](C)C(=O)N[C@H](CCC(=O)NCCNCCNc1c2ccccc2nc2cccc([N+](=O)[O-])c12)C(N)=O (stereo not given in full) has a documented TGI of 78.5

// recorded TGI for `N#CC(=C1SCS1)[N+](=O)[O-]` : 14.2

Measured TGI of `COc1cc2c(cc1OCCCCCOc1cc3c(cc1OC)C(=O)N1CCC[C@H]1C(=O)N3)N=C[C@@H]1CCCN1C2=O` : 37.1

response.value for `O=C(/C=C/c1ccc(Cl)cc1)c1ccc(Cl)cc1Cl` (field: TGI) = 13.8

// sample `COc1cc(/C=C\[N+](=O)[O-])ccc1O` , its TGI was 17.3

Sample `CN=C(N)N/N=C(\c1ccccc1)c1ccc(Br)cc1` ; TGI observed: 4.4

====

System: EKVX NSCLC
Assay: NCI tumour cell line growth inhibition, 48 h
TGI values for the compounds below.

Completed entries (count: 2):
[[record]]
smiles_entry = "CCc1c2c(nc3cc4c(cc13)OCO4)-c1cc3c(c(=O)n1C2)COC(=O)[C@]3(O)CC"
result = "> 100 µM"

[[record]]
smiles_entry = "c1ccc([P+](CCNCCNCC[P+](c2ccccc2)(c2ccccc2)c2ccccc2)(c2ccccc2)c2ccccc2)cc1"
result = "> 100 µM"


Lab note: measured TGI of `O=C(NNc1nc2c(F)cccc2n2cccc12)c1cnccn1` was 30 µM

Lab note: `c1cc2nnc1SCCSCCSc1ccc(nn1)SCCSCCS2` gave TGI of > 100 µM

`CC[C@@H]1CC[C@@H]2[C@H](CC[C@]3(C)[C@@H](O)CC[C@@H]23)[C@H]1C(=O)O` has a reported TGI of > 100 µM

// field: TGI; key: `COc1cc(-n2cc(-c3ccc(Cl)c(Cl)c3)nc2SCc2ccccc2)cc(OC)c1OC` ; value = > 100 µM

// TGI lookup, compound = `COc1ccc(NC(=O)Nc2n[nH]c3ccccc23)cc1` , result: > 100 µM

Reported TGI for `Brc1cccc(-c2cc(-c3ccc4c(c3)OCCO4)[nH]n2)c1` was 49.6 µM
